# target-entity: wildtype SARS-CoV-2 Nsp15 (Severe acute respiratory syndrome coronavirus 2)
endpoint-label: IC50 (µM)
Numbers only, in µM.

Known results for molecules:
[[record]]
line_notation = "O=C1NC(=O)C(=CC=Cc2cccc3ccncc23)S1"
target_entity = "wildtype SARS-CoV-2 Nsp15 (Severe acute respiratory syndrome coronavirus 2)"
unit_abbreviation = "µM"
result = 4.17

[[record]]
line_notation = "O=C1NC(=S)SC1=CC=Cc1c2ccccc2cc2ccccc12"
target_entity = "wildtype SARS-CoV-2 Nsp15 (Severe acute respiratory syndrome coronavirus 2)"
unit_abbreviation = "µM"
result = 4.58

[[record]]
line_notation = "O=C1NC(=O)C(=CC=Cc2ccc3cnccc3c2)S1"
target_entity = "wildtype SARS-CoV-2 Nsp15 (Severe acute respiratory syndrome coronavirus 2)"
unit_abbreviation = "µM"
result = 0.932


Here's the next entry for you.
Query: Identify measured IC50 associated with O=C1NC(=O)C(=CC=Cc2cccc3ccccc23)S1
Result: 4.41
